solubility thermodynamic at 72 h values for the compounds below.
# TEST_DESCRIPTION: physchem
# SETTINGS: PBS buffer, pH 7.4
# Description: Aqueous solubility of the compound in PBS buffer at pH 7.4 after 72 hrs by conventional shake flask method
Form entry: enter the amount, then its unit.

# COMPOUND, ENDPOINT_NAME, OBSERVED
data = [
    ("Nc1nnc(CCCCc2nnc(NC(=O)Cc3ccccc3)s2)s1", "solubility thermodynamic at 72 h", "3.4 µg/mL"),
]

Alright, here's another compound for you.
Need solubility thermodynamic at 72 h, item `O=C(CCCCc1nnc(NC(=O)Cc2ccccc2)s1)NCCN1CCCC1`
683 µg/mL
